Reported response of antibody #2 values for a set of binders
assayed target: human LILRB2 (human) (UniProt Q8N423)
run description: BLI Octet sandwich binning; competitor (antibody #1 on sensor) J-19
No unit in the answer, only the number.

# annotated cases, reported response of antibody #2 shown
binder	response of antibody #2
J-11 (antibody, human IgG4 S228P, kappa, V domains shown) VH: QVQLQQSGAELMKPGASVKLSCKATGYILTGYWIEWVKQRPGHGLEWIGEILPGSGSTNYNENFKGKATFTADTSSNTAYMQLSSLTTEDSAIYYCARAVLGYFDYWGQGTTLTVSS VL: DIVMTQSHKFMSTSVGDRVSITCKASQDVSTAVAWYQQKPGQSPKLLIYWASTRHTGVPDRFTGSGSGTDYTLTISSVQAEDLALYYCHQHYSTYTFGGGTKLEIKR	0.28
J-19 (antibody, human IgG4 S228P, kappa, V domains shown) VH: QVTLKESGPGILQPSHTLSLTCSFSGFSLNTYAMGVSWIRQPSGKGLEWLASIWWNGNKYNNPSLKSRLTVSKDTSNNQAFLKVTSVDTADTATYYCAHSRIIRFTDYVMDAWGQGASVTVSS VL: DIQMTQSPASLSTFLGEPVTIECRASEDIYNDLAWYQQKPGKSPQLLIYNANSLHTGVPSRFSGSGSGTQYSLKINSLQSEDVASYFCQQYYDYPLTFGSGTKLEIKR	-0.21
J-17 (antibody, human IgG4 S228P, kappa, V domains shown) VH: QIQLVQSGPELKKPGETVKISCKASGYTFTTYGLSWVKQTPGKGLKWMGWINTYSGVPTYTDDFKGRFAFSLETSASTAYLQINNLKNEDTATYFCARPYDFDQVGFAYWGQGTLVTVSA VL: SIVMTQTPKFLLVSAGDRVSITCKASQTVSSDVAWYQQKAGQSPKLLIYYASNRYTGVPDRFTGSGYGTDFTFTISTVQAEDLAVYFCQQDYSSPFTFGGGSKLEIKR	-0.21

Q: Query response of antibody #2 for J-04 (antibody, human IgG4 S228P, kappa, V domains shown) VH: QVQLQQSGAELVRPGASVTLSCKASGYTFADYEIHWVKQTPVHGLEWIGAIDPETGGTAYNQKFKGKAILTADKSSSTAYMELRSLTSEDSAVYYCTRYYDYDDAMDYWGQGTSVTVSS VL: QIVLTQSPAIMSASPGEKVTMTCSASSSVSFMHWYQQKSGTSPKRWIYGTSKLASGVPARFSGSGSGTSYSLTISSMEAEDAATYYCQQWNGNPFTFGSGTKLETKR
A: 0.54
